Exercise: for every item that follows, state its recorded CC50.
test: Cytotoxicity against human HUVEC cells assessed as reduction in cell viability by CCK-8 assay; format: toxicity, cell-based
Respond numerically; units are µM and should not be typed.

(Q) Report CC50 for "Cc1ccc(Nc2cc(-c3ccc(C)cc3)nc3ccccc23)cc1.Cl" please.
(A) 36

(Q) Moving on to "C[C@@H]1[C@H](O)[C@@H](C)/C=C/C=C/C=C/C=C/C=C/C=C/C=C/[C@H](O[C@@H]2O[C@H](C)[C@@H](O)[C@H](N)[C@@H]2O)C[C@@H]2O[C@](O)(C[C@@H](O)C[C@@H](O)[C@H](O)CC[C@@H](O)C[C@@H](O)CC(=O)O[C@H]1C)C[C@H](O)[C@H]2C(=O)O"
(A) 4.92
